tested on: tetA promoter (PtetA)-lacZ reporter in E. coli KM3; assay type: cell-based; details: Table 4; metsulfuron 20 μg/ml (20 ppm); 48 hrs at 30° C.
VALUE_TYPE: relative β-galactosidase activity, inducer Ms

{"columns": ["MOLECULE", "VALUE_REPORTED"],
 "data": [
  ["L1-38: library L1 hit, sulfonylurea-responsive TetR(B) variant (protein, Sulfonylurea responsive repressor L1-38) MGSRLDKSKVINSALELLNEVGIEGLTTRKLAQKLGVEQPTLYWHVKNKRALLDALAIEMADRHHTHFCPLEGESWQDFLRNNAKSMRCALLSHRDGAKVWLGTAWTEKQYETTENMLAFLCQQGFSLENALYAWRAVTMFTLGCVLRDQEWQVAKEERETPTTDSMPPLLRQALELGDHQGAEPAFLFGLELIICGLEKQLKCESGS", 14.7],
  ["L1-7: library L1 hit, sulfonylurea-responsive TetR(B) variant, SEQ ID NO: 4 (protein, Sulfonylurea responsive repressor L1-07) MGSRLDKSKVINSALELLNEVGIEGLTTRKLAQKLGVEQPTLYWHVKNKRALLDALAIEMLDRHNTHFCPLEGESWQDFLRNNAKSWRCALLSHRDGAKVVLGTAITEKQYETHENPLAFLCQQGFSLENALYAIAAVRRFTLGCVLVDQERQVAKEERETPTTDSMPPLLRQASELQDHQGAEPAFLFGLELIICGLEKQLKCERGS", 0.2],
  ["L1-24: library L1 hit, sulfonylurea-responsive TetR(B) variant (protein, Sulfonylurea responsive repressor L1-24) MGSRLDKSKVINSALELLNEVGIEGLTTRKLAQKLGVEQPTLYWHVKNKRALLDALAIEMLDRHNTHFCPLEGESWQDFLRNSAKSMRCALLSHRDGAKVLLGTAVTEKQYETTENSLAFLCQQGFSLENALYAIRAVRTFTLGCVLVDQERQVAKEERETPTTDSMPPLLRQAKELLDHQGAEPAFLFGLELIICGLEKQLKCESGS", 0.4]
]}
